Hello, the source for this data is PubChem BioAssay (NCATS), in case you need it.

- System: Tov-21-G
- assay: Primary qHTS to identify gynecologic anti-cancer compounds using libraries of approved drugs and bioactive compounds (AID 1345084); also: nearly all actives have a fitted effect of over 55% in size
- measurement-parameters: Gynecologic cancer cell panel viability, ATPlite luminescence, 48 h; series mostly up to 57.5 µM
Records with an inconclusive call do not appear. Activity calls are given as the source filed them. Calls follow the shape of the dose curve; as a rule, active = well fitted cell-killing curve with a large enough effect; inconclusive = small, poorly fitted or top-dose-only effect, or effect the other way; inactive = flat fitted curve, though single readings scatter.
readout-name: outcome

Example results:
compound: Nc1cc(C(F)(F)F)ccc1S
outcome: inactive

compound: O=C(Oc1ccccc1)c1cccc(C(=O)Oc2ccccc2)c1
outcome: inactive

compound: CCOC(=O)Cn1cccc1-c1nc(-c2ccc(OC)cc2)c(-c2ccc(OC)cc2)s1
outcome: inactive

compound: COc1ccc2cc(C=O)ccc2c1
outcome: inactive

compound: NC(=O)NS(=O)(=O)c1ccc(Cl)cc1
outcome: inactive

Can you give me outcome for all of these, one by one?
1. CN(C)CCN1CCN(c2cccc(Cl)c2)C1=O
2. NC(=O)COCCN1CCN(C(c2ccccc2)c2ccc(Cl)cc2)CC1 (stereo unspecified)
3. CN(C)CCOC1=Cc2ccccc2Sc2ccc(Cl)cc21
4. CSCC[C@H](NC(=O)[C@H](Cc1c[nH]c2ccccc12)NC(=O)CCNC(=O)OC(C)(C)C)C(=O)N[C@@H](CC(=O)O)C(=O)N[C@@H](Cc1ccccc1)C(N)=O

inactive
inactive
inactive
inactive

Can you give me outcome for all of these, one by one?
1. CC(=O)c1ccc(O)c(C(N)=O)c1
2. CC(C)Cc1ccc(C(C)C(=O)OCc2ccccn2)cc1 (stereo unspecified)

1: inactive; 2: inactive
